assay system: HLA-B*3501 (human)
endpoint label: RA (relative affinity)

> print(dat)
                                     binder  observed
1  MPFATPMEA (synthetic peptide; also called nonamer 94-102) [NY-ESO-1 peptide 94-102 MPFATPMEA]       0.4

[1] EAAGIGILY (synthetic modified peptide) [modified Melan-A peptide 26-34 EAAGIGILY]
[2] EPAGIGILY (synthetic modified peptide) [modified Melan-A peptide 26-34 EPAGIGILY]
[3] VPLDCVLYRY (synthetic peptide) [gp100 peptide 471-480 VPLDCVLYRY]
# input Arrange the 3 binders from largest to smallest RA (relative affinity). # the answer lists labels in the order requested
# output 3, 1, 2
(3: 2.6, 1: 1.32, 2: 0.4)

These data points were gathered from patent US20060122119A1.
